Give binding signal for every item shown.
- TGT: OsWRKY34 (Oryza sativa, UniProt Q0JBA9 1-250)
- Sequence (Q0JBA9 entry or part of it): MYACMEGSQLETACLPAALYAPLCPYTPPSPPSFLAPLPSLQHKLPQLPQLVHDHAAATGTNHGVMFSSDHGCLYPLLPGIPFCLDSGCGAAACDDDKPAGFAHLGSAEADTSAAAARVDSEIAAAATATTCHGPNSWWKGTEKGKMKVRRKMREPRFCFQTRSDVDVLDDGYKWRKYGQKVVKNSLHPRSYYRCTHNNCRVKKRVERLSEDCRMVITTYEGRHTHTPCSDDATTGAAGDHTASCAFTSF
- MEASUREMENT_PROTOCOL: protein-binding microarray (RPBM); PBS, 2% BSA, 51.3 ng/ul salmon testes DNA, 50 uM zinc acetate, 200 nM TF, 25 C, 1 h; high values mean tight binding
- SETTINGS: protein: recombinant; tags: N-terminal polyhistidine and DsRed monomer fusion (pET32a); label: CyDye5-dUTP incorporated in the synthesized complementary strand; 3' TTTTT single-stranded linker to array surface; dsDNA, one strand shown
In all, about 68,000 sequences were measured (“fluorescence intensity (a.u.)”: median about 9,100, highest 2% from about 16,000 on). The sample holds the highest values, similar sequences and a random draw of the others, so the mix is not that of the screen.

For each entry beneath this line, provide reported binding signal.
1. TAACAGTTGACACAGGGAGCGGAGGGGCAGCTTGGTCATTCGGAGTCACCTAGTGCAG
2. CGCCTTCGCCTCCGGCCCCTTATATGGCGTGGCGGGGAGGCGGAGTCACCTAGTGCAG
3. GTGGTTATTCAATTTGTTGCTTGTTTTTGTTTCAAGTTGGCGGAGTCACCTAGTGCAG
4. ATTCTGATTGGGTGTGGTTGGTTTGATTTTCTGTTAAGCACGGAGTCACCTAGTGCAG

Data returned:
["8420 fluorescence intensity (a.u.)", "8930 fluorescence intensity (a.u.)", "10700 fluorescence intensity (a.u.)", "11700 fluorescence intensity (a.u.)"]

Data request: Request the reported binding signal associated with TCTCTCTCTCGTGCGTCACCTCCTCGCGTGCTCAGCGCCGCGGAGTCACCTAGTGCAG
Data returned: 8780 fluorescence intensity (a.u.)

====

Give binding signal for every item shown.
- TGT: OsWRKY34 (Oryza sativa, UniProt Q0JBA9 1-250)
- MEASUREMENT_PROTOCOL: protein-binding microarray (RPBM); PBS, 2% BSA, 51.3 ng/ul salmon testes DNA, 50 uM zinc acetate, 200 nM TF, 25 C, 1 h; high values mean tight binding
- SETTINGS: protein: recombinant; tags: N-terminal polyhistidine and DsRed monomer fusion (pET32a); label: CyDye5-dUTP incorporated in the synthesized complementary strand; 3' TTTTT single-stranded linker to array surface; dsDNA, one strand shown
Over roughly 68,000 sequences, “fluorescence intensity (a.u.)” has its median near 9,100; the highest 2% begin near 16,000. The sample as a whole holds a higher share of the highest values than the screen did.

Previously resolved entries follow.
Data request: Request the reported binding signal associated with GCTACTGGTGCCGGCCGCCGTCCTCCTGCTTCCGCCGCCGCGGAGTCACCTAGTGCAG
Data returned: 9560 fluorescence intensity (a.u.)

Data request: Request the reported binding signal associated with TTCGTGCACGCGGTCCATGCACCAGCCACCATTCCCTTCGCGGAGTCACCTAGTGCAG
Data returned: 8350 fluorescence intensity (a.u.)

For each entry beneath this line, provide reported binding signal.
1. TCCTCTACTGGTTCTACGTCTTCTCATAATCAACCCAAATCGGAGTCACCTAGTGCAG
2. ATGTATAACACTGTTGACTTTTTAAGATATATTTGATCATCGGAGTCACCTAGTGCAG
3. TCAGCAATCTCTCTTTCTACTAGGGTCTCTTCTACCAGCGCGGAGTCACCTAGTGCAG
4. AACCATAAAACATGTGATTCTTTTTTTTAACCAAAACTTACGGAGTCACCTAGTGCAG
5. ACATGTAAACTGTGCAATTGATTTTTTTTGTCCACATTTACGGAGTCACCTAGTGCAG

Data returned:
1. 11700 fluorescence intensity (a.u.)
2. 15900 fluorescence intensity (a.u.)
3. 8070 fluorescence intensity (a.u.)
4. 8130 fluorescence intensity (a.u.)
5. 10400 fluorescence intensity (a.u.)

====

- TGT: OsWRKY34 (Oryza sativa, UniProt Q0JBA9 1-250)
- MEASUREMENT_PROTOCOL: protein-binding microarray (RPBM); PBS, 2% BSA, 51.3 ng/ul salmon testes DNA, 50 uM zinc acetate, 200 nM TF, 25 C, 1 h; high values mean tight binding
- SETTINGS: protein: recombinant; tags: N-terminal polyhistidine and DsRed monomer fusion (pET32a); label: CyDye5-dUTP incorporated in the synthesized complementary strand; 3' TTTTT single-stranded linker to array surface; dsDNA, one strand shown
Whole data set: some 68,000 sequences, median “fluorescence intensity (a.u.)” near 9,100, cut for the highest 2% near 16,000. The sample as a whole holds a higher share of the highest values than the screen did.
Give binding signal for every item shown.

Previously resolved entries follow.
Data request: Request the reported binding signal associated with CTGAAGTGAGGGAGGGGAGGAGGTGGTGGTGGTGGGGAAGCGGAGTCACCTAGTGCAG
Data returned: 15600 fluorescence intensity (a.u.)

Data request: Request the reported binding signal associated with TGCTCCGACCACTGCCCACCCCGCTCCACCGGCTAGAGAGCGGAGTCACCTAGTGCAG
Data returned: 9120 fluorescence intensity (a.u.)

Data request: Request the reported binding signal associated with GGTTTTTTTCCCGCTTATCCCACTTCTAGTCTATCTTTTTCGGAGTCACCTAGTGCAG
Data returned: 19300 fluorescence intensity (a.u.)

Data request: Request the reported binding signal associated with CTTCGTTCGTTGGATTCGCTCTCGCGCGCCGCCGCCGCCGCGGAGTCACCTAGTGCAG
Data returned: 11200 fluorescence intensity (a.u.)

Data request: Request the reported binding signal associated with CCGCCATGTGGGCCCCACCTCGCCGCCTCCGCTCCACTCTCGGAGTCACCTAGTGCAG
Data returned: 13600 fluorescence intensity (a.u.)

For each entry beneath this line, provide reported binding signal.
1. TGGCATCATCGACCATACACTTTTGTCAATCCGTTCAGCTCGGAGTCACCTAGTGCAG
2. GCTAGATTGGATAAGGAGGGGAGGAGGGTGGAGGGGAGGGCGGAGTCACCTAGTGCAG

Data returned:
1. 8910 fluorescence intensity (a.u.)
2. 22700 fluorescence intensity (a.u.)

For each entry beneath this line, provide reported binding signal.
1. ATTTCTAAATATTTGACGTCGTTGACTTTTTTAAACATGTCGGAGTCACCTAGTGCAG
2. GCCACTCCTGACGTCAGCGTTGACTCGGTCAAACCCATCGCGGAGTCACCTAGTGCAG
3. ATCTTAAGCTGTCCTTTTTCATGCCGAGTCAGAGTTTCATCGGAGTCACCTAGTGCAG
4. GTCTCGCTTTCTCTCTCTAGGGTTTTTCCCCACTTTCGTTCGGAGTCACCTAGTGCAG
5. ATGGATGGGGATTCATTTGTTTGGTGAGTAGTGGTCGGGTCGGAGTCACCTAGTGCAG
6. CTAAATATTTGACGCCGTTGACTTTTTAAAACATGTTTGACGGAGTCACCTAGTGCAG
7. CTCTCGTTGTTTTTGCTCTTTTGGGTTCGCTCGGAAGATGCGGAGTCACCTAGTGCAG
8. AGAGGGATGGGTGTTTGATTGGAGTGGGTTGGGAGCCATGCGGAGTCACCTAGTGCAG

Data returned:
["26800 fluorescence intensity (a.u.)", "19300 fluorescence intensity (a.u.)", "9130 fluorescence intensity (a.u.)", "13700 fluorescence intensity (a.u.)", "9800 fluorescence intensity (a.u.)", "30500 fluorescence intensity (a.u.)", "8490 fluorescence intensity (a.u.)", "9390 fluorescence intensity (a.u.)"]

For each entry beneath this line, provide reported binding signal.
1. CACACGCACGCTTCTCACGTACATATCGATCGCAAATATCCGGAGTCACCTAGTGCAG
2. GGGTTATGTTTCATTTGTATTATTTTCTTAATTCTTACACCGGAGTCACCTAGTGCAG

Data returned:
1: 8490 fluorescence intensity (a.u.); 2: 12700 fluorescence intensity (a.u.)

For each entry beneath this line, provide reported binding signal.
1. AGGTCATCGCAGGGCTCCTCTCCATCGCAGCCGCTCCAGCCGGAGTCACCTAGTGCAG
2. TCTGCTTTTATTCATCGGTTTCATTAATTGTTTCTGTTACCGGAGTCACCTAGTGCAG

Data returned:
8910 fluorescence intensity (a.u.)
17200 fluorescence intensity (a.u.)
